Tested on: Mus musculus
Assay: Cardioprotective activity against DOX-induced acute heart failure DCM in ip dosed C57BL/6J mouse model assessed as increase in fractional shortening administered qd from day 10 post DOX-challenge measured after 50 days by echocardiography
Type: functional, organism-based
Active and inactive are the calls of the source. No cut-off for these calls is given here.
Outcomes you can answer with include only these: y for active, n for inactive

Take a look at these entries with their results.
CC1(C)[C@@H](O[C@H]2O[C@H](C(=O)O)[C@@H](O)[C@H](O)[C@H]2O[C@@H]2O[C@H](C(=O)O)[C@@H](O)[C@H](O)[C@H]2O)CC[C@]2(C)[C@H]3C(=O)C=C4[C@@H]5C[C@@](C)(CN[C@@H](Cc6c[nH]c7ccccc67)C(=O)O)CC[C@]5(C)CC[C@@]4(C)[C@]3(C)CC[C@@H]12
y
CC1(C)[C@@H](O[C@H]2O[C@H](C(=O)O)[C@@H](O)[C@H](O)[C@H]2O[C@@H]2O[C@H](C(=O)O)[C@@H](O)[C@H](O)[C@H]2O)CC[C@]2(C)[C@H]3C(=O)C=C4[C@@H]5C[C@@](C)(CNCC(=O)O)CC[C@]5(C)CC[C@@]4(C)[C@]3(C)CC[C@@H]12
n
CC1(C)[C@@H](O[C@H]2O[C@H](C(=O)O)[C@@H](O)[C@H](O)[C@H]2O[C@@H]2O[C@H](C(=O)O)[C@@H](O)[C@H](O)[C@H]2O)CC[C@]2(C)[C@H]3C(=O)C=C4[C@@H]5C[C@@](C)(CN[C@@H](CCC(=O)O)C(=O)O)CC[C@]5(C)CC[C@@]4(C)[C@]3(C)CC[C@@H]12
y
CC1(C)[C@@H](O[C@H]2O[C@H](C(=O)O)[C@@H](O)[C@H](O)[C@H]2O[C@@H]2O[C@H](C(=O)O)[C@@H](O)[C@H](O)[C@H]2O)CC[C@]2(C)[C@H]3C(=O)C=C4[C@@H]5C[C@@](C)(CN[C@@H](CO)C(=O)O)CC[C@]5(C)CC[C@@]4(C)[C@]3(C)CC[C@@H]12
y

Now consider a different molecule.
For CC1(C)[C@@H](O[C@H]2O[C@H](C(=O)O)[C@@H](O)[C@H](O)[C@H]2O[C@@H]2O[C@H](C(=O)O)[C@@H](O)[C@H](O)[C@H]2O)CC[C@]2(C)[C@H]3C(=O)C=C4[C@@H]5C[C@@](C)(CN[C@@H](CC(=O)O)C(=O)O)CC[C@]5(C)CC[C@@]4(C)[C@]3(C)CC[C@@H]12 , what call appears in the results of this test?
y
